- system_under_test: hAChE (Homo sapiens)
- Sequence (P22303 32-614): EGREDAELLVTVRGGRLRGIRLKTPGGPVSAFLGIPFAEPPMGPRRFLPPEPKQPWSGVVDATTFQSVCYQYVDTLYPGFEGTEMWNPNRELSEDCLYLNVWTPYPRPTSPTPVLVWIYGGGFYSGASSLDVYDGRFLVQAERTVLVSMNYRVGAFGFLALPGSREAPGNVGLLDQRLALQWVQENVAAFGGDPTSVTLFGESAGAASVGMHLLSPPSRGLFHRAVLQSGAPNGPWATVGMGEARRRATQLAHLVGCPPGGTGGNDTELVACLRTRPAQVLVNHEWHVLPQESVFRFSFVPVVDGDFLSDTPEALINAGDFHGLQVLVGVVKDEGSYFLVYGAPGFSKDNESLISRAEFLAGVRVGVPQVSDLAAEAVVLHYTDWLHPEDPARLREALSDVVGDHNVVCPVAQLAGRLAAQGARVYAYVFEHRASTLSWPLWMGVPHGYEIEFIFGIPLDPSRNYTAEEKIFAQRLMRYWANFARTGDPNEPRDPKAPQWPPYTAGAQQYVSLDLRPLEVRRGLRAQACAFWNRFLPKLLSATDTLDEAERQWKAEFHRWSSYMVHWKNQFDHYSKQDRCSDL
- method: biochemical
- settings: hAChE IC50 ± SEM, two independent experiments, each in triplicate
measurement_type: IC50 (µM)

[[record]]
structure_string = "CC(C)Cn1ncc2cc(Oc3cccc4ccccc34)c(C(=O)NCCN(C)C)cc21"
system_under_test = "hAChE (Homo sapiens)"
measurement_type = "IC50"
unit_info = "µM"
measurement = 61.3

[[record]]
structure_string = "CC(C)Cn1ncc2cc(Oc3ccc4ccccc4c3)c(C(=O)NCCN(C)C)cc21"
system_under_test = "hAChE (Homo sapiens)"
measurement_type = "IC50"
unit_info = "µM"
measurement = 116

[[record]]
structure_string = "CN(C)CCCNC(=O)c1cc2nn(CC3CCCCC3)cc2cc1Oc1ccc(F)cc1F"
system_under_test = "hAChE (Homo sapiens)"
measurement_type = "IC50"
unit_info = "µM"
measurement = 41.9

[[record]]
structure_string = "CN(C)CCNC(=O)c1cc2c(cnn2CC2CC2)cc1Oc1ccc(F)cc1F"
system_under_test = "hAChE (Homo sapiens)"
measurement_type = "IC50"
unit_info = "µM"
measurement = 83.9

[[record]]
structure_string = "CN(C)CCNC(=O)c1cc2c(cnn2CC2CCCCC2)cc1Oc1ccc(F)cc1F"
system_under_test = "hAChE (Homo sapiens)"
measurement_type = "IC50"
unit_info = "µM"
measurement = 64.4

[[record]]
structure_string = "CN(C)CCNC(=O)c1cc2nn(CC3CCCCC3)cc2cc1Oc1ccc(F)cc1F"
system_under_test = "hAChE (Homo sapiens)"
measurement_type = "IC50"
unit_info = "µM"
measurement = 28.9

[[record]]
structure_string = "CN(C)CCCNC(=O)c1cc2c(cnn2CC2CC2)cc1Oc1ccc(F)cc1F"
system_under_test = "hAChE (Homo sapiens)"
measurement_type = "IC50"
unit_info = "µM"
measurement = 110


###

- system_under_test: hAChE
measurement_type: IC50

[[record]]
molecule = "CN(C)CCNC(=O)c1cc2nn(Cc3ccccc3)cc2cc1Oc1ccc(F)cc1F"
system_under_test = "hAChE"
measurement = "103 µM"

[[record]]
molecule = "CN(C)CCNC(=O)c1cc2c(cnn2CC2CC2)cc1Oc1ccc(F)cc1F [Compound 73]"
system_under_test = "hAChE"
measurement = "83.9 µM"

[[record]]
molecule = "CC(C)Cn1ncc2cc(Oc3cccc4ccccc34)c(C(=O)NCCN(C)C)cc21 [Compound 89]"
system_under_test = "hAChE"
measurement = "61.3 µM"

[[record]]
molecule = "CN(C)CCNC(=O)c1cc2c(cnn2CC2CCCCC2)cc1Oc1ccc(F)cc1F [Compound 75]"
system_under_test = "hAChE"
measurement = "64.4 µM"

[[record]]
molecule = "CN(C)CCNC(=O)c1cc2nn(CC3CCCCC3)cc2cc1Oc1ccc(F)cc1F [Compound 99]"
system_under_test = "hAChE"
measurement = "28.9 µM"


###

- method: Pharmacokinetic study in mice
- settings: male, CD-1, mouse, serum, ip, 10 mg/kg
measurement_type: Vd/F (L/kg)

[[record]]
structure_string = "CC(C)Cn1ncc2cc(Cc3ccc(F)cc3F)c(C(=O)NCCN(C)C)cc21"
measurement = 46

[[record]]
structure_string = "CN(C)CCNC(=O)c1cc2c(cnn2CC2CCCCC2)cc1Cc1ccc(F)cc1F"
measurement = 23.4


###

- method: Pharmacokinetic study in mice
- settings: male, CD-1, mouse, serum, ip, 30 mg/kg
measurement_type: AUC(0-t)

[[record]]
compound = "O=c1ncn2nc(Sc3ccc(F)cc3F)ccc2c1-c1c(Cl)cccc1Cl [neflamapimod, reference compound]"
measurement = "14400 ng·h/mL"


###

- method: in vitro
- settings: PAMPA, pH 7.4
measurement_type: Papp (×10⁻⁶ cm/s)

[[record]]
compound = "CN(C)CCNC(=O)c1cc2c(cnn2CC2CCCCC2)cc1Cc1ccc(F)cc1F [Compound 95]"
unit_info = "×10⁻⁶ cm/s"
measurement = 13.2

[[record]]
compound = "CC(C)Cn1ncc2cc(Cc3ccc(F)cc3F)c(C(=O)NCCN(C)C)cc21 [Compound 94]"
unit_info = "×10⁻⁶ cm/s"
measurement = 10.4


###

- system_under_test: p38α MAPK
measurement_type: IC50 (nM)

[[record]]
compound = "CN(C)CCCNC(=O)c1cc2nn(CC3CCCCC3)cc2cc1Oc1ccc(F)cc1F"
system_under_test = "p38α MAPK"
measurement_type = "IC50"
measurement = 16200

[[record]]
compound = "CN(C)CCNC(=O)c1cc2[nH]ncc2cc1Oc1ccc(F)cc1F"
system_under_test = "p38α MAPK"
measurement_type = "IC50"
measurement = 6030

[[record]]
compound = "CN(C)CCCNC(=O)c1cc2c(cnn2CC2CCCCC2)cc1Oc1ccc(F)cc1F"
system_under_test = "p38α MAPK"
measurement_type = "IC50"
measurement = 108

[[record]]
compound = "O=C(NCCn1ccnc1)c1cc2c(cnn2CC2CCCCC2)cc1Oc1ccc(F)cc1F"
system_under_test = "p38α MAPK"
measurement_type = "IC50"
measurement = 218

[[record]]
compound = "COCC1CCCN(CCNC(=O)c2cc3c(cnn3CC3CCCCC3)cc2Oc2ccc(F)cc2F)C1 (racemic)"
system_under_test = "p38α MAPK"
measurement_type = "IC50"
measurement = 379

[[record]]
compound = "O=C(NCCn1cccc1)c1cc2c(cnn2CC2CCCCC2)cc1Oc1ccc(F)cc1F"
system_under_test = "p38α MAPK"
measurement_type = "IC50"
measurement = 75800

[[record]]
compound = "CN(C)CCNC(=O)c1cc2c(cnn2CC2CCC2)cc1Oc1ccc(F)cc1F"
system_under_test = "p38α MAPK"
measurement_type = "IC50"
measurement = 142

[[record]]
compound = "O=C(NCCN1CCOCC1)c1cc2c(cnn2CC2CCCCC2)cc1Oc1ccc(F)cc1F"
system_under_test = "p38α MAPK"
measurement_type = "IC50"
measurement = 744


###

Please consider the recorded RA at 100 µM for p38α MAPK in what follows.
measurement_type: RA at 100 µM (%)

[[record]]
structure_string = "CN(C)CCNC(=O)c1cc2nn(CC3CCCCC3)cc2cc1Cc1ccc(F)cc1F"
measurement = 91.0

[[record]]
structure_string = "NC(=O)c1ccccc1NC(=O)Nc1ccc(Cl)c(Cl)c1"
measurement = 59

[[record]]
structure_string = "Cn1nc(C(C)(C)C)cc1NC(=O)Nc1ccc(Cl)cc1"
measurement = 10


###

- method: Pharmacokinetic study in mice
- settings: male, CD-1, mouse, brain/serum, ip, 10 mg/kg
Listing of recorded Kp by entry.
measurement_type: Kp

[[record]]
structure_string = "CC(C)Cn1ncc2cc(Cc3ccc(F)cc3F)c(C(=O)NCCN(C)C)cc21"
measurement_type = "Kp"
measurement = 1.58

[[record]]
structure_string = "CN(C)CCNC(=O)c1cc2c(cnn2CC2CCCCC2)cc1Cc1ccc(F)cc1F"
measurement_type = "Kp"
measurement = 0.83


###

- system_under_test: human p38α MAPK (Homo sapiens)
- Sequence (Q16539 whole entry): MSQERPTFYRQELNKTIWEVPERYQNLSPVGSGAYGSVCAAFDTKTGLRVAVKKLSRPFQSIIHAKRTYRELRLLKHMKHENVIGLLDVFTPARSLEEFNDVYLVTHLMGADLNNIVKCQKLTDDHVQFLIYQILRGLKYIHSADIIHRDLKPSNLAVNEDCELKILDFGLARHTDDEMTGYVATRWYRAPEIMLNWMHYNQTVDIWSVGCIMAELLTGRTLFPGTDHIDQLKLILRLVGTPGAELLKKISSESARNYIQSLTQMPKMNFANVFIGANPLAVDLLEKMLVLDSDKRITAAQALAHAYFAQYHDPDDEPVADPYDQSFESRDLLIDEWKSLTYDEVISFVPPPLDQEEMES
- settings: residual activity at 100 μM; mean ± SD, one experiment in triplicate
measurement_type: p38α MAPK RA at 100 μM (%)

[[record]]
molecule = "CN(C)CCNC(=O)c1cc2c(cnn2C)cc1Cc1ccc(F)cc1F [Compound 96]"
measurement = 88.2

[[record]]
molecule = "CC(C)Cn1ncc2cc(S(=O)(=O)c3ccc(F)cc3F)c(C(=O)NCCN(C)C)cc21 [Compound 93]"
measurement = 5.9

[[record]]
molecule = "CC(C)Cn1ncc2cc(Oc3ccc4ccccc4c3)c(C(=O)NCCN(C)C)cc21 [Compound 90]"
measurement = 9.5

[[record]]
molecule = "COc1ccc(Oc2cc3cnn(CC(C)C)c3cc2C(=O)NCCN(C)C)cc1 [Compound 91]"
measurement = 0.9


###

These compounds were tested on p38α MAPK; IC50 is the recorded read-out.
measurement_type: IC50 (nM)

[[record]]
compound = "O=C(NCCn1ccnc1)c1cc2nn(CC3CCCCC3)cc2cc1Oc1ccc(F)cc1F [Compound 105]"
measurement_type = "IC50"
measurement = 19500

[[record]]
compound = "CN(C)CCNC(=O)c1cc2c(cnn2CC2CCCCC2)cc1Oc1ccc(F)cc1F [Compound 75]"
measurement_type = "IC50"
measurement = 142

[[record]]
compound = "CN(C)CCNC(=O)c1cc2c(cnn2CC2CC2)cc1Oc1ccc(F)cc1F [Compound 73]"
measurement_type = "IC50"
measurement = 362

[[record]]
compound = "CN(C)CCNC(=O)c1cc2nn(Cc3ccccc3)cc2cc1Oc1ccc(F)cc1F"
measurement_type = "IC50"
measurement = 19500

[[record]]
compound = "CC(C)Cn1ncc2cc(Sc3ccc(F)cc3F)c(C(=O)NCCN(C)C)cc21 [Compound 92]"
measurement_type = "IC50"
measurement = 53

[[record]]
compound = "CC(C)Cn1cc2cc(Oc3ccc(F)cc3F)c(C(=O)NCCN(C)C)cc2n1 [Compound 97]"
measurement_type = "IC50"
measurement = 5790

[[record]]
compound = "CN(C)CCNC(=O)c1cc2c(cnn2C2C=CCCC2)cc1Oc1ccc(F)cc1F (stereo not drawn) [Compound 83]"
measurement_type = "IC50"
measurement = 88

[[record]]
compound = "COC(=O)c1cc2c(cnn2CC2CC2)cc1Oc1ccc(F)cc1F"
measurement_type = "IC50"
measurement = 330

[[record]]
compound = "CN(C)CCNC(=O)c1cc2nn(CC3CCCCC3)cc2cc1Oc1ccc(F)cc1F [Compound 99]"
measurement_type = "IC50"
measurement = 6780

